Target system: butyrylcholinesterase (BuChE) (Homo sapiens)
Test summary: biochemical
Details: in vitro, 25 °C, pH 8.0, triplicate; standards listed separately for series 1–13 and 14–26; read-out: BuChE Inhibition IC50 ± SEM
Known IC50 of a selection of compounds
Quantity: IC50 (µM)

Compound	Result value
COc1ccc(/C(CSc2nc3cc(OC)ccc3[nH]2)=N\N=C\N2CCCCC2)cc1 [Compound 16]	30
Cc1ccc(/C(CSc2nc3cc([N+](=O)[O-])ccc3[nH]2)=N\N=C\N2CCCCC2)cc1 [Compound 25]	32.2
COc1ccc2[nH]c(SC/C(=N/N=C/N3CCCCC3)c3ccccc3OC)nc2c1 [Compound 15]	29.1
COc1ccc2[nH]c(SC/C(=N/N=C/c3cc[nH]c3)c3ccccc3OC)nc2c1 [Compound 4]	29.2
COc1ccc(/C(CSc2nc3ccccc3[nH]2)=N\N=C\N2CCCCC2)cc1 [Compound 22]	34.3
COc1ccc2[nH]c(SC/C(=N/N=C/N3CCCCC3)c3cccc([N+](=O)[O-])c3)nc2c1 [Compound 17]	27.3
COc1ccc2[nH]c(SC/C(=N/N=C/N3CCCCC3)c3ccc(C)cc3)nc2c1 [Compound 18]	39.1
Cc1ccc(/C(CSc2nc3ccccc3[nH]2)=N\N=C\c2cc[nH]c2)cc1 [Compound 7]	39.6
COc1ccc(/C(CSc2nc3cc([N+](=O)[O-])ccc3[nH]2)=N\N=C\N2CCCCC2)cc1 [Compound 24]	39.7
O=[N+]([O-])c1ccc2[nH]c(SC/C(=N/N=C/N3CCCCC3)c3ccc(-c4ccccc4)cc3)nc2c1 [Compound 23]	42.3
Cc1ccc(/C(CSc2nc3cc([N+](=O)[O-])ccc3[nH]2)=N\N=C\c2cc[nH]c2)cc1 [Compound 13]	33.3
O=[N+]([O-])c1cccc(/C(CSc2nc3ccccc3[nH]2)=N\N=C\N2CCCCC2)c1 [Compound 20]	31.2
COc1ccc(/C(CSc2nc3ccccc3[nH]2)=N\N=C\c2cc[nH]c2)cc1 [Compound 9]	28
COc1ccc2[nH]c(SC/C(=N/N=C/c3cc[nH]c3)c3ccc(C)cc3)nc2c1 [Compound 1]	31
COc1ccc(/C(CSc2nc3cc([N+](=O)[O-])ccc3[nH]2)=N\N=C\c2cc[nH]c2)cc1 [Compound 12]	27.4
COc1ccc2[nH]c(SC/C(=N/N=C/c3cc[nH]c3)c3ccc(-c4ccccc4)cc3)nc2c1 [Compound 3]	34.1

* * *

Target system: UniProt:P22303
Test summary: biochemical

Smiles text	IC50
O=[N+]([O-])c1cccc(/C(CSc2nc3cc([N+](=O)[O-])ccc3[nH]2)=N\N=C\c2cc[nH]c2)c1	19.4 µM

* * *

Target system: butyrylcholinesterase (BuChE) (Homo sapiens, UniProt P06276)
Sequence (P06276 29-602): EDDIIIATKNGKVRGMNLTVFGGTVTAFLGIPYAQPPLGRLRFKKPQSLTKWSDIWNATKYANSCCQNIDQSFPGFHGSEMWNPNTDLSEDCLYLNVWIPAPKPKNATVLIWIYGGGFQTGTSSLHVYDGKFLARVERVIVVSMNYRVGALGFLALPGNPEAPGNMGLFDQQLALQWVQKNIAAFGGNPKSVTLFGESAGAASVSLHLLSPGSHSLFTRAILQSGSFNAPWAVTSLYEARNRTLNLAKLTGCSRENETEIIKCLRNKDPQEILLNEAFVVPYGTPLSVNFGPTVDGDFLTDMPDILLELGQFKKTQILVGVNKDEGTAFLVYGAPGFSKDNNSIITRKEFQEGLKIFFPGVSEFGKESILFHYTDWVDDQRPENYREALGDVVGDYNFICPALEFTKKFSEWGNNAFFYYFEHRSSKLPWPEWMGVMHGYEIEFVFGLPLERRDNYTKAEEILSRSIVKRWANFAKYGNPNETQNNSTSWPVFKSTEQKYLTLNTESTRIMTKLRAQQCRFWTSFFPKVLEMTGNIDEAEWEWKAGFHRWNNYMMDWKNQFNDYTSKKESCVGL
Test summary: biochemical
Details: BuChE Inhibition IC50 ± SEM, in vitro, 25 °C, pH 8.0, triplicate; standards listed separately for series 1–13 and 14–26

Smiles text	Target system	Measurement unit	IC50
O=[N+]([O-])c1cccc(/C(CSc2nc3cc([N+](=O)[O-])ccc3[nH]2)=N\N=C\c2cc[nH]c2)c1	butyrylcholinesterase (BuChE) (Homo sapiens, UniProt P06276)	µM	21.6

* * *

Known IC50 of a selection of compounds
Target system: acetylcholinesterase (AChE) (Homo sapiens)
Sequence (P22303 32-614, species assumed): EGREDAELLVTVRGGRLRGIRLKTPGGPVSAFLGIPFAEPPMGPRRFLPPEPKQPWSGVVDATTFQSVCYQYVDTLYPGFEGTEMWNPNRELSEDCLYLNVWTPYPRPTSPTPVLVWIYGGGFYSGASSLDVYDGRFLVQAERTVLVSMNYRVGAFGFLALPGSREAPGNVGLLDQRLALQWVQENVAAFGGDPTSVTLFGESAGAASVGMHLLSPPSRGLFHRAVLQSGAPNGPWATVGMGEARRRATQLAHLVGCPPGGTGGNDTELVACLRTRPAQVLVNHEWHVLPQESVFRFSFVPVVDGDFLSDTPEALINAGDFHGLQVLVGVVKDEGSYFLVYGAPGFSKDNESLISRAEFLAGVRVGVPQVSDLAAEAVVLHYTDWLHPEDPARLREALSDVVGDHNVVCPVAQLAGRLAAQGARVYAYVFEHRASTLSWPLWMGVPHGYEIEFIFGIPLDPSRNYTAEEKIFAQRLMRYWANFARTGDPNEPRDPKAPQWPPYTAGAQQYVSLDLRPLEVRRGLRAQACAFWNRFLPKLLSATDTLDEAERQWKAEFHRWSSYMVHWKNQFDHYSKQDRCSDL
Test summary: biochemical
Details: in vitro, 25 °C, pH 8.0, triplicate; standards listed separately for series 1–13 and 14–26; read-out: AChE Inhibition IC50 ± SEM

Smiles text	IC50
COc1ccccc1/C(CSc1nc2ccccc2[nH]1)=N\N=C\N1CCCCC1	30.1 µM
COc1ccc(/C(CSc2nc3cc([N+](=O)[O-])ccc3[nH]2)=N\N=C\c2cc[nH]c2)cc1	23.1 µM
Cc1ccc(/C(CSc2nc3cc([N+](=O)[O-])ccc3[nH]2)=N\N=C\N2CCCCC2)cc1	35 µM
O=[N+]([O-])c1ccc2[nH]c(SC/C(=N/N=C/N3CCCCC3)c3ccc(-c4ccccc4)cc3)nc2c1	38.2 µM

src = paper PMC11053857
